# tgt: Human PKMYT1 (Homo sapiens, UniProt Q99640)
# Construct: Human PKMYT1 75-362 was cloned as a TEV cleavable 6xHis fusion; 6xHis (TEV cleavable) (cleaved yes); made in house; host or cells: bacterial cells
# Sequence (Q99640 75-362): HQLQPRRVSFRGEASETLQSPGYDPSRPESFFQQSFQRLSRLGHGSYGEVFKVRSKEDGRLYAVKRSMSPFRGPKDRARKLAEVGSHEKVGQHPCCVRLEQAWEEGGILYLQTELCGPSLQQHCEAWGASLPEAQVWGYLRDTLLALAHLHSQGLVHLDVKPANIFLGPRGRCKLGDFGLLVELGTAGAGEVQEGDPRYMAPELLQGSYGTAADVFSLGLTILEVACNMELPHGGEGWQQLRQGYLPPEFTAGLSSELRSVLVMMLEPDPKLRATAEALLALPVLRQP
# testDetails: PKMYT1 biochemical ADP-Glo enzymatic assay
# protocolConditions: PKMYT1 kinase domain 15 nM; ADP-Glo; banded values
pIC50: −log10 of the molar value.
readoutLabel: pIC50

Cc1ccc(O)c(C)c1NC(=O)c1cnc(Nc2cccc(F)n2)s1; > 7.30

Value lookup for pIC50; key = CCn1nc(Nc2ncc(C(=O)Nc3c(C)ccc(O)c3C)s2)c2cc(F)ccc21
6.00 to 7.30

Value lookup for pIC50; key = CCOc1ccc(Nc2ncc(C(=O)Nc3c(C)ccc(O)c3C)s2)nc1C
> 7.30

Value lookup for pIC50; key = Cc1ccc(O)c(C)c1NC(=O)c1nnc(Nc2ccn(C)n2)s1
6.00 to 7.30

Value lookup for pIC50; key = Cc1ccc(O)c(Br)c1NC(=O)c1cnc(Nc2ccn(C)n2)s1
> 7.30

Value lookup for pIC50; key = Cc1ccc(O)c(C)c1NC(=O)c1cnc(Nc2nc(C(F)(F)F)co2)s1
4.96 to 6.00

Value lookup for pIC50; key = COc1cncnc1Nc1ncc(C(=O)Nc2c(C)ccc(O)c2C)s1
> 7.30

Value lookup for pIC50; key = Cc1ccc(O)c(C)c1NC(=O)c1cnc(Nc2cc(C)n(C3CCS(=O)(=O)C3)n2)s1 (stereo not drawn)
6.00 to 7.30

Value lookup for pIC50; key = Cc1ccc(O)c(C)c1NC(=O)c1nnc(Nc2ccn(C3CCC3)n2)s1
6.00 to 7.30

Value lookup for pIC50; key = Cc1ccc(O)c(C)c1NC(=O)c1cnc(Nc2cccc(-c3cccnc3)n2)s1
> 7.30

Value lookup for pIC50; key = CCN(CCC#N)C(=O)Cn1cc(C)c(Nc2ncc(C(=O)Nc3c(C)ccc(O)c3C)s2)n1
> 7.30

Value lookup for pIC50; key = Cc1ccc(O)c(C)c1NC(=O)c1cnc(Nc2cc(Br)n(C)n2)s1
6.00 to 7.30

Value lookup for pIC50; key = Cc1cccnc1Nc1ncc(C(=O)Nc2c(C)ccc(O)c2C)s1
> 7.30

Value lookup for pIC50; key = Cc1ccc(O)c(C)c1NC(=O)c1cnc(Nc2nn(C)cc2C#N)s1
> 7.30

Value lookup for pIC50; key = COCCn1cc(C)c(Nc2ncc(C(=O)Nc3c(C)ccc(O)c3C)s2)n1
> 7.30
